Tested on: LOX IMVI
Test: Growth inhibition of human LOXIMVI cells by sulforhodamine B assay
Type: functional
Conditions: read-out: TGI
Provide the recorded TGI for the entries that follow.
Only the number, expressed in µM, is required.

Look up TGI with LOX IMVI for this compound: "CC(C)=CC(=O)O[C@@H]1CC(C)(C)C[C@H]2C3=CC[C@@H]4[C@@]5(C)CCC(=O)C(C)(C)[C@@H]5CC[C@@]4(C)[C@]3(C)CC[C@@]12C(=O)O"
29.3

Look up TGI with LOX IMVI for this compound: "CC1(C)C[C@@H](O)[C@]2(C(=O)O)CC[C@]3(C)C(=CC[C@@H]4[C@@]5(C)C/C(=C\C=C\c6ccccc6)C(=O)C(C)(C)[C@@H]5CC[C@]43C)[C@@H]2C1"
3.56

Look up TGI with LOX IMVI for this compound: CC(C)=CC(=O)O[C@@H]1CC(C)(C)C[C@H]2C3=CC[C@@H]4[C@@]5(C)CC[C@H](O)C(C)(C)[C@@H]5CC[C@@]4(C)[C@]3(C)CC[C@@]12C(=O)O [Reduced Lantadene B]
38.2

Look up TGI with LOX IMVI for this compound: C/C=C(/C)C(=O)O[C@@H]1CC(C)(C)C[C@H]2C3=CC[C@@H]4[C@@]5(C)CC[C@H](O)C(C)(C)[C@@H]5CC[C@@]4(C)[C@]3(C)CC[C@@]12C(=O)O [Reduced Lantadene A]
13

====

System: HOP-92
Test: Growth inhibition of human HOP92 cells assessed as cell growth at 10^-6 M by sulforhodamine B assay
Type: functional
Settings: read-out: Activity
Measured attribute: growth at 1 µM (%)
Only the number, expressed in %, is required.

Quick one: growth at 1 µM of "CC(C)=CC(=O)O[C@@H]1CC(C)(C)C[C@H]2C3=CC[C@@H]4[C@@]5(C)CC[C@H](O)C(C)(C)[C@@H]5CC[C@@]4(C)[C@]3(C)CC[C@@]12C(=O)O" ?
70

Quick one: growth at 1 µM of "C/C=C(/C)C(=O)O[C@@H]1CC(C)(C)C[C@H]2C3=CC[C@@H]4[C@@]5(C)CC[C@H](O)C(C)(C)[C@@H]5CC[C@@]4(C)[C@]3(C)CC[C@@]12C(=O)O" ?
73

Quick one: growth at 1 µM of "CC1(C)C[C@@H](O)[C@]2(C(=O)O)CC[C@]3(C)C(=CC[C@@H]4[C@@]5(C)C/C(=C\C=C\c6ccccc6)C(=O)C(C)(C)[C@@H]5CC[C@]43C)[C@@H]2C1" ?
76

Quick one: growth at 1 µM of "CC(C)=CC(=O)O[C@@H]1CC(C)(C)C[C@H]2C3=CC[C@@H]4[C@@]5(C)CCC(=O)C(C)(C)[C@@H]5CC[C@@]4(C)[C@]3(C)CC[C@@]12C(=O)O" ?
69

Quick one: growth at 1 µM of "C/C=C(/C)C(=O)O[C@@H]1CC(C)(C)C[C@H]2C3=CC[C@@H]4[C@@]5(C)CCC(=O)C(C)(C)[C@@H]5CC[C@@]4(C)[C@]3(C)CC[C@@]12C(=O)O" ?
56

====

Tested on: UACC-257
Assay: Growth inhibition of human UACC257 cells assessed as cell growth at 10 uM by sulforhodamine B assay
Assay type: functional
Conditions: read-out: Activity
Measured attribute: growth at 10 µM (%)
Only the number, expressed in %, is required.

Look up growth at 10 µM with UACC-257 for this compound: "CC1(C)C[C@@H](O)[C@]2(C(=O)O)CC[C@]3(C)C(=CC[C@@H]4[C@@]5(C)C/C(=C\C=C\c6ccccc6)C(=O)C(C)(C)[C@@H]5CC[C@]43C)[C@@H]2C1"
62

Look up growth at 10 µM with UACC-257 for this compound: "CC(C)=CC(=O)O[C@@H]1CC(C)(C)C[C@H]2C3=CC[C@@H]4[C@@]5(C)CCC(=O)C(C)(C)[C@@H]5CC[C@@]4(C)[C@]3(C)CC[C@@]12C(=O)O"
73.9

Look up growth at 10 µM with UACC-257 for this compound: "CC1(C)C[C@@H](O)[C@]2(C(=O)O)CC[C@]3(C)C(=CC[C@@H]4[C@@]5(C)CCC(=O)C(C)(C)[C@@H]5CC[C@]43C)[C@@H]2C1"
91.2

Each recorded value in this set is attributed to ChEMBL document CHEMBL2413072.
